Target: BRAF^V600E protein (Homo sapiens, UniProt P15056, V600E)
Sequence (P15056 whole entry V600E): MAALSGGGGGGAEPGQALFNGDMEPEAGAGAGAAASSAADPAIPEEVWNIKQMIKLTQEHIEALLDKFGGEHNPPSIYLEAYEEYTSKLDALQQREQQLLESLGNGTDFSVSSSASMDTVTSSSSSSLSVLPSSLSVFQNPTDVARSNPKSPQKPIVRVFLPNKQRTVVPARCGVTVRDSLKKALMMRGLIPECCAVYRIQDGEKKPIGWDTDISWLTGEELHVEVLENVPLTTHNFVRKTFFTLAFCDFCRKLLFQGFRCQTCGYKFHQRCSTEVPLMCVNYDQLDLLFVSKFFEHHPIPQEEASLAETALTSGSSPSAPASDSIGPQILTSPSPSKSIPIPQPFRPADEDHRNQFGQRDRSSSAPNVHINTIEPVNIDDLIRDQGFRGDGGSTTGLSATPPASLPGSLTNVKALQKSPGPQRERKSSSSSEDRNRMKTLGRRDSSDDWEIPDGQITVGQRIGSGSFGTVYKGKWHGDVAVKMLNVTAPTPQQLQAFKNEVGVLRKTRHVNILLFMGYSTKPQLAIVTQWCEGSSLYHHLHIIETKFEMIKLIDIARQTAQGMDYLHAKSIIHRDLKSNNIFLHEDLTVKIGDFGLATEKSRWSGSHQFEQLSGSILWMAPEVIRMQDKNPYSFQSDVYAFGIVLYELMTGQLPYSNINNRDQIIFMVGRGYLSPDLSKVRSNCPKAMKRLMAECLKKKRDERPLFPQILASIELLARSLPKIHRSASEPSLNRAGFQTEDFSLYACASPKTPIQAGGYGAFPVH
Experiment: HiBiT cellular BRAF V600E degradation assay
Type: cell-based
Conditions: A375.10 cells (HiBiT tag knocked in at N-terminal of BRAF V600E), 24 h incubation; concentration at which 50% of total cellular BRAF V600E is degraded
Structures can show the parent of a compound that is named as a salt.
result_type: DC50 (nM)

[[record]]
compound = "CCN(C)S(=O)(=O)Nc1ccc(F)c(C(=O)c2c[nH]c3ncc(-c4cnc(N5CCN(C(=O)Cc6ccc(N7CCN(C8CCC(=O)NC8=O)C(=O)C7)cc6)CC5)nc4)cc23)c1F (stereo not shown)"
unit_name = "nM"
result = 4.57

[[record]]
compound = "CCN(C)S(=O)(=O)Nc1ccc(F)c(C(=O)c2c[nH]c3ncc(-c4ccc(N5CCC(N(C)CC(=O)N6CCC(c7ccc(NC8CCC(=O)NC8=O)cn7)CC6)CC5)nc4)cc23)c1F (stereo not shown) [Example A101, hydrochloride]"
unit_name = "nM"
result = 20

[[record]]
compound = "CCN(C)S(=O)(=O)Nc1ccc(F)c(C(=O)c2c[nH]c3ncc(-c4ccc(N5CCN(C(=O)CC6(O)CCN(c7ccc(N8CCC(=O)NC8=O)cc7Cl)CC6)CC5)nc4)cc23)c1F"
unit_name = "nM"
result = 0.65

[[record]]
compound = "CCN(C)S(=O)(=O)Nc1cccc(C(=O)c2c[nH]c3ncc(-c4ccc(N5CCN(C(=O)CC6(O)CCN(c7ccc(C8CCC(=O)NC8=O)cc7F)CC6)CC5)nc4)cc23)c1F (stereo not shown)"
unit_name = "nM"
result = 3.51

[[record]]
compound = "CCN(C)S(=O)(=O)Nc1ccc(F)c(C(=O)c2c[nH]c3ncc(-c4cnc(N5CCN(C(=O)CC6CCN(c7c(F)cc(NC8CCC(=O)NC8=O)cc7F)CC6)CC5)nc4)cc23)c1F (stereo not shown)"
unit_name = "nM"
result = 23.6

[[record]]
compound = "CCN(C)S(=O)(=O)Nc1ccc(F)c(C(=O)c2c[nH]c3ncc(-c4cnc(N5CC6(CC(C7CCN(c8ccc(NC9CCC(=O)NC9=O)cc8F)CC7)C6)C5)nc4)cc23)c1F (stereo not shown)"
unit_name = "nM"
result = 28.3

[[record]]
compound = "CCN(C)S(=O)(=O)Nc1ccc(F)c(C(=O)c2c[nH]c3ncc(-c4ccc(N5CCN(C(=O)CC6(O)CCN(c7ccc(C8CCC(=O)NC8=O)cc7F)CC6)CC5)cc4)cc23)c1F (stereo not shown)"
unit_name = "nM"
result = 7.12

[[record]]
compound = "CC(C)S(=O)(=O)Nc1ccc(F)c(C(=O)c2c[nH]c3ncc(-c4cnc(N5CCN(C(=O)CN6CCC(c7ccc8c(N9CCC(=O)NC9=O)nn(C)c8c7)CC6)CC5)nc4)cc23)c1F"
unit_name = "nM"
result = 4.45

[[record]]
compound = "CCN(C)S(=O)(=O)Nc1cccc(C(=O)c2c[nH]c3ncc(-c4ccc(N5CCN(C(=O)CN6CCC(c7ccc(NC8CCC(=O)NC8=O)cc7)CC6)CC5)nc4)cc23)c1Br (stereo not shown)"
unit_name = "nM"
result = 8.83

[[record]]
compound = "CCN(C)S(=O)(=O)Nc1ccc(F)c(C(=O)c2c[nH]c3ncc(-c4cnc(N5CC6(CC(CC(=O)N7CCC(c8ccc(NC9CCC(=O)NC9=O)cc8)CC7)C6)C5)nc4)cc23)c1F (stereo not shown)"
unit_name = "nM"
result = 14.7

